System: DIPGX9 (diffuse intrinsic pontine glioma line)
Assay: growth inhibition (% activity, log2 RLU normalised to DMSO / staurosporine); higher = more growth inhibition
Details: 33 µM
property name: growth inhibition (%)
Reply with just the number (in %).

Q. Give the reported growth inhibition for O=C(O)c1ccccc1 (system: DIPGX9).
A. -0.0449

Q. Write down the reported growth inhibition of CCN[C@H]1C[C@H](C)S(=O)(=O)c2sc(S(N)(=O)=O)cc21 , test system: DIPGX9.
A. 0.778

Q. # get_value(readout= growth inhibition, system= DIPGX9) for CC1=CC(=O)c2ccccc2C1=O
A. 2.26

Q. Any idea what growth inhibition came out for Cc1cc(NC(=O)C2=C(O)c3ccccc3S(=O)(=O)N2C)no1 on DIPGX9?
A. -3.17

Q. Can you look up growth inhibition on DIPGX9 for Cc1ncc(CO)c(CO)c1O ?
A. 0.826

Q. Tell me reported growth inhibition for CC(CCc1ccc(O)cc1)NCC(O)c1ccc(O)cc1 (stereo not drawn) , tested with DIPGX9.
A. 0.398

Q. Tell me reported growth inhibition for O=C(Oc1ccccc1C(=O)O)c1ccccc1O , tested with DIPGX9.
A. -2.94

Q. Look up growth inhibition with DIPGX9 for this compound: C[C@]12CC[C@@H]3c4ccc(O)cc4CC[C@H]3[C@@H]1C[C@@H](O)[C@@H]2O
A. -3.27

Q. Can you look up growth inhibition on DIPGX9 for N#CC(c1ccc(Cl)cc1)c1c(Cl)cc(-n2ncc(=O)[nH]c2=O)cc1Cl (stereo not drawn) ?
A. -2.54

Q. Lab request: please report growth inhibition under test system DIPGX9 for CCC[C@H](NC(=O)[C@@H]1[C@H]2CCC[C@H]2CN1C(=O)[C@@H](NC(=O)[C@@H](NC(=O)c1cnccn1)C1CCCCC1)C(C)(C)C)C(=O)C(=O)NC1CC1
A. 1.41

Q. GET /values?readout=growth inhibition&system=DIPGX9&item= CC(C(=O)O)c1ccc(C(=O)c2cccs2)cc1 (stereo not drawn)
A. -0.699

Q. Could you share what growth inhibition was measured for O=C1CN2Cc3c(ccc(Cl)c3Cl)N=C2N1 , tested on DIPGX9?
A. 0.847

Q. Notebook: pull reported growth inhibition for DIPGX9, entry Nc1nc2ccc(OC(F)(F)F)cc2s1
A. 4.59

Q. What reported growth inhibition corresponds to CCOC(=O)[C@H](CCc1ccccc1)N[C@@H](C)C(=O)N1Cc2cc(OC)c(OC)cc2C[C@H]1C(=O)O on DIPGX9?
A. -1.23

Q. Form field - read-out: growth inhibition; system: DIPGX9; submitted item: O=S(=O)(O)NC1CCCCC1
A. 0.594

Q. Field: growth inhibition (DIPGX9). Entry: O=C(O)CCc1nc(-c2ccccc2)c(-c2ccccc2)o1
A. -1.33

Q. Query for DIPGX9: what growth inhibition does the record show for C=C[C@H]1CN2CC[C@H]1C[C@H]2[C@H](O)c1ccnc2ccc(OC)cc12 ?
A. 2.35

Q. Value wanted: growth inhibition (DIPGX9) of entry CCCCCCCCCCCCCCCCO
A. 1.02

Q. Query growth inhibition on DIPGX9 for O=C1CCC(N2C(=O)c3ccccc3C2=O)C(=O)N1 (stereo not drawn)
A. -1.66

Q. Test system DIPGX9; read-out growth inhibition; what value for CCCCC(CC)CN=C(N)N=C(N)NCCCCCCNC(N)=NC(N)=NCC(CC)CCCC (stereo not drawn) ?
A. 57.3

Q. What reported growth inhibition corresponds to Cc1cccc(Nc2ccncc2S(=O)(=O)NC(=O)NC(C)C)c1 on DIPGX9?
A. -0.205

Q. Lab note: need growth inhibition for C[C@@H]1C/C=C/C=C/C=C/C=C/[C@H](O[C@@H]2O[C@H](C)[C@@H](O)[C@H](N)[C@@H]2O)C[C@@H]2O[C@](O)(C[C@@H](O)C[C@H]3O[C@@H]3/C=C/C(=O)O1)C[C@H](O)[C@H]2C(=O)O on DIPGX9, anyone have it?
A. 1.2

Q. Write down the reported growth inhibition of CN1C(C(=O)Nc2ccccn2)=C(O)c2ccccc2S1(=O)=O , test system: DIPGX9.
A. -1.57

Q. // map O=c1cc[nH]c(=O)[nH]1 to recorded growth inhibition (system: DIPGX9)
A. 1.11

Q. Under DIPGX9: growth inhibition value of CCC(C)(C)C(=O)O[C@H]1C[C@@H](C)C=C2C=C[C@H](C)[C@H](CC[C@@H]3C[C@@H](O)CC(=O)O3)[C@H]21 ?
A. 1.4

Q. Give growth inhibition (DIPGX9) of the following compound: CCCSc1nc(N[C@@H]2C[C@H]2c2ccc(F)c(F)c2)c2nnn([C@@H]3C[C@H](OCCO)[C@@H](O)[C@H]3O)c2n1
A. 1.97

Q. Missing value: growth inhibition, DIPGX9, entry O=C(O)c1cn(C2CC2)c2cc(N3CCNCC3)c(F)cc2c1=O . Fill in?
A. -1.26

Q. Missing value: growth inhibition, DIPGX9, entry Cc1onc(-c2ccccc2Cl)c1C(=O)N[C@@H]1C(=O)N2[C@@H]1SC(C)(C)[C@@H]2C(=O)O . Fill in?
A. -1.05

Q. Enter reported growth inhibition observed with DIPGX9 for NC[C@@H]1O[C@H](O[C@H]2[C@@H](O)[C@H](O[C@@H]3[C@@H](O)[C@H](N)C[C@H](N)[C@H]3O[C@H]3O[C@H](CO)[C@@H](O)[C@H](O)[C@H]3N)O[C@@H]2CO)[C@H](N)[C@@H](O)[C@@H]1O
A. 0.973

Q. Enter reported growth inhibition observed with DIPGX9 for Cc1ccc(N(CC2=NCCN2)c2cccc(O)c2)cc1
A. -2.27

Q. API: value(readout= growth inhibition, system= DIPGX9, query= NC(=O)c1cccnc1 )
A. 0.951

Q. Field: growth inhibition (DIPGX9). Entry: O=C(O)c1cc(=O)c2c(OCC(O)COc3cccc4oc(C(=O)O)cc(=O)c34)cccc2o1
A. 0.155

Q. Recall the recorded growth inhibition for CC1(C)S[C@@H]2[C@H](NC(=O)C(C(=O)O)c3ccccc3)C(=O)N2[C@H]1C(=O)O (stereo partly drawn) with DIPGX9 and state it.
A. 0.809

Q. Lookup: growth inhibition / DIPGX9 / CC(=O)/N=c1/sc(S(N)(=O)=O)nn1C
A. 1.1

Q. Write down the reported growth inhibition of CNC(=C[N+](=O)[O-])NCCSCc1csc(CN(C)C)n1 , test system: DIPGX9.
A. 0.0593

Q. Find growth inhibition (DIPGX9) for the entry Cc1c(Cl)cccc1Nc1ccccc1C(=O)O
A. 2.29

Q. API: value(readout=growth inhibition, system=DIPGX9) for record CCCc1nn(C)c2c(=O)[nH]c(-c3cc(S(=O)(=O)N4CCN(C)CC4)ccc3OCC)nc12
A. -0.0138

Q. Checklist item: growth inhibition tested on DIPGX9, entry CN(C)CCC(c1ccccc1)c1ccccn1 (stereo not drawn) , value?
A. 0.794

Q. Request body: readout growth inhibition, system DIPGX9, query CN1CCC[C@H]1c1cccnc1 . Return the value.
A. -1.61

Q. Provide the documented growth inhibition with DIPGX9 as the system for Nc1nnc(-c2cccc(Cl)c2Cl)c(N)n1
A. -0.0846

Q. API: value(readout=growth inhibition, system=DIPGX9) for record O=C(O)CCCN1CCC(O[C@@H](c2ccc(Cl)cc2)c2ccccn2)CC1
A. -1.86

Q. Recorded growth inhibition for Cc1cc(=O)[nH]c(=S)[nH]1 with DIPGX9, please?
A. 1.41

Q. // fetch DIPGX9 growth inhibition for NCCCCCC(=O)O
A. 1.09

###

Tested on: DIPGX37 (H3.3 K27M diffuse intrinsic pontine glioma line)
Assay: growth inhibition (% activity, log2 RLU normalised to DMSO / staurosporine); higher = more growth inhibition
Conditions: 33 µM
Task for the reader: assign each of the following compounds its reported growth inhibition.
// note: answer is a bare numeric in %

Q. Look up growth inhibition: COc1cc(/C=C/C(=O)CC(=O)/C=C/c2ccc(O)c(OC)c2)ccc1O
A. 1.27

Q. So what's the measured growth inhibition for this one? COc1cc(OC)c(C(=O)CCCN2CCCC2)c(OC)c1
A. 1.82

Q. Could you share which growth inhibition value was measured for CCCCCCCCCC(=O)NC1C(Oc2c3cc4cc2Oc2ccc(cc2Cl)C(OC2OC(CO)C(O)C(O)C2NC(C)=O)C2NC(=O)C(NC(=O)C4NC(=O)C4NC(=O)C(Cc5ccc(c(Cl)c5)O3)NC(=O)C(N)c3ccc(O)c(c3)Oc3cc(O)cc4c3)c3ccc(O)c(c3)-c3c(OC4OC(CO)C(O)C(O)C4O)cc(O)cc3C(C(=O)O)NC2=O)OC(CO)C(O)C1O (configuration not stated) ?
A. 0.115

Q. Quick one: growth inhibition for CCCCCCCCCCCCCCCC[N+](C)(C)C ?
A. 41.6

Q. Item CN(C)CCOC(C)(c1ccccc1)c1ccccn1 (configuration not stated) has what recorded growth inhibition?
A. -0.506

Q. What value of growth inhibition has been recorded for this entry: OC(CCN1CCCCC1)(c1ccccc1)c1ccccc1
A. 1.3

Q. Item under review: Nc1nc2ccc(OC(F)(F)F)cc2s1 . Reported growth inhibition?
A. 4.46

Q. Bench note: what growth inhibition did Cc1c(O)c(=O)ccn1C show?
A. -0.497

Q. What value of growth inhibition has been reported for the following compound? O=C1c2cccc3c2[C@H](CCC3)CN1[C@@H]1CN2CCC1CC2
A. 0.267

Q. Need growth inhibition, item Nc1ccc(S(=O)(=O)Nc2nccs2)cc1
A. -1.47

Q. For the compound shown here, C#CCC(Cc1cnc2nc(N)nc(N)c2n1)c1ccc(C(=O)N[C@@H](CCC(=O)O)C(=O)O)cc1 (some centres not stated) , give the reported growth inhibition.
A. 6.3

Q. If you can, please state the reported growth inhibition value of CCN(CC)CCOC(=O)C(c1ccccc1)c1ccccc1 .
A. 2.41
